System: IGROV1 ovarian
assay_comment: NCI tumour cell line growth inhibition, 48 h; in the data active = GI50 below about 0.43 µM; inactive = the rest
Outcome codes: active, inactive

{"columns": ["compound", "class_assignment"],
 "data": [
  ["COc1cc2c(cc1C)NC(=O)/C2=C/c1c(C)nc2sc(C)cn12", "inactive"],
  ["Cc1cc(Cl)ccc1Nc1nc(C(F)(F)F)ccc1C(=O)N/N=C/c1ccc(F)cc1", "inactive"],
  ["C#CCOc1c(OC)cc(C(=O)/C(C)=C/c2cccc(N=[N+]=[N-])c2)cc1OC", "inactive"],
  ["CC(=O)/C=C/c1ccc(N(C)Cc2ccc(C(C)(C)C)cc2)cc1", "inactive"],
  ["N=c1c2c(=O)n3c(nc2nc2sc4ccc(Cl)cc4n12)-c1ccccc1Sc1ccccc1-3", "inactive"],
  ["COc1ccc2c(c1)c(=O)oc1cc(OC/C(=N\\O)c3ccc(F)cc3)ccc12", "inactive"],
  ["COc1cccc(-c2cc(NCc3ccc4c(c3)OCO4)nc(N)n2)c1", "active"],
  ["COc1ccc(OC)c2c3c(ncc12)-c1cc2c(cc1C3)OCO2", "inactive"],
  ["COc1ccc2c(c1)CC[C@@H]1[C@@H]2CC[C@]2(C)c3c(cc(C(=O)c4ccccc4)c4sccc34)C[C@@H]12", "inactive"],
  ["CCOC(=O)C1=C(N)Oc2cc(OC)ccc2C1c1ccc(F)c(F)c1 (stereo not given)", "inactive"]
]}
